- Test system: MYB mRNA
- ASSAY EXPLANATION: Splicing RT-qPCR assay, MYB canonical (CJ) and alternative (AJ) junction mRNA
- Format: cell-based, human
- CONDITION SET: Homo sapiens, 24 h, A673 or K562 cells, 24 hours compound treatment, RT-qPCR; read-out: MYB CJ (IC50, decrease in canonical junction mRNA)
IC50 by entry:

| COMPOUND | IC50 |
| --- | --- |
| Cc1cn2cc(NC(=O)c3ccc(N4CC[C@@H](Nc5ccccc5)C4)c4cn(C)nc34)cc(F)c2n1 [Compound 579] | > 10000 nM |

What value of IC50 has been reported for the following compound? CCn1cc2c(N3CCN(C)CC3)cc(F)c(C(=O)Nc3cc(F)c4nc(C)cn4c3)c2n1 [Compound 481]
< 100 nM

What value of IC50 has been reported for the following compound? Cc1cn2cc(NC(=O)c3ccc(N4CC5(CN(C)C5)C4)c4cn(C)nc34)cc(F)c2n1 [Compound 243]
< 100 nM

What value of IC50 has been reported for the following compound? CCn1cc2c(N3CCN4C(=O)OCC4C3)ccc(C(=O)Nc3cc(F)c4nc(C)cn4c3)c2n1 (centres unmarked) [Compound 415]
100 to 1000 nM

What value of IC50 has been reported for the following compound? Cc1cc(NC(=O)c2ccc(N3CCNCC3)c3cn(C)nc23)cc2cn(C)nc12 [Compound 320]
100 to 1000 nM

What value of IC50 has been reported for the following compound? Cn1cc2c(F)cc(NC(=O)c3ccc(N4CCNCC4)c4cn(C)nc34)cc2n1 [Compound 231]
> 10000 nM

What value of IC50 has been reported for the following compound? Cc1nc2c(F)cc(NC(=O)c3ccc(N4CCNCC4)c4cn(C)nc34)cn2c1C [Compound 458]
< 100 nM

What value of IC50 has been reported for the following compound? CN[C@@H]1CCN(c2ccc(C(=O)Nc3cn4cc(C)nc4c(OC)n3)c3nn(CCOC)cc23)C1 [Compound 431]
100 to 1000 nM

----------
- Test system: MYB mRNA
- ASSAY EXPLANATION: Splicing RT-qPCR assay, MYB canonical (CJ) and alternative (AJ) junction mRNA
- Assay type: cell-based, human
- CONDITION SET: Homo sapiens, 24 h, A673 or K562 cells, 24 hours compound treatment, RT-qPCR; read-out: MYB CJ (IC50, decrease in canonical junction mRNA)
Where a name gives a salt, the structure may show the parent alone.
IC50 by entry:

Would you please look over these solved cases?
| COMPOUND | SYSTEM UNDER TEST | IC50 |
| --- | --- | --- |
| CCn1cc2c(N3CCC(NC4(CO)CC4)CC3)ccc(C(=O)Nc3cc(F)c4nc(C)cn4c3)c2n1 [Compound 590] | MYB mRNA | 100 to 1000 nM |
| Cc1cn2cc(NC(=O)c3ccc(N4CCC(NCc5ccccn5)CC4)c4cn(C)nc34)cc(F)c2n1 [Compound 347] | MYB mRNA | < 100 nM |
| Cc1cn2cc(NC(=O)c3ccc(N4CC[C@@H](N5C[C@@H](C)N[C@@H](C)C5)C4)c4cn(C)nc34)cc(F)c2n1 [Compound 621] | MYB mRNA | 1000 to 10000 nM |

What value of IC50 has been reported for the following compound? CCn1cc2c(N3CCC(C)(N)C3)ccc(C(=O)Nc3cc(F)c4nc(C)cn4c3)c2n1 (stereo not drawn) [Compound 539]
1000 to 10000 nM

What value of IC50 has been reported for the following compound? CCn1cc2c(N3CCN[C@@H](C(C)C)C3)ccc(C(=O)Nc3cc(F)c4nc(C)cn4c3)c2n1 [Compound 535]
100 to 1000 nM

What value of IC50 has been reported for the following compound? Cc1cn2cc(NC(=O)c3ccc(N4CC[C@@H](NC56CC(C5)C6)C4)c4cn(C)nc34)cc(F)c2n1 [Compound 568]
1000 to 10000 nM

What value of IC50 has been reported for the following compound? Cc1cn2cc(NC(=O)c3ccc(N4CCNC[C@@H]4C)c4cn(C)nc34)cc(F)c2n1 [Compound 446]
100 to 1000 nM

What value of IC50 has been reported for the following compound? Cc1cn2cc(NC(=O)c3ccc(N4CCNCC4)c4cn(C)nc34)ccc2n1 [Compound 518]
100 to 1000 nM

What value of IC50 has been reported for the following compound? CCn1cc2c(N3CCC(NC4CC4)CC3)cc(Cl)c(C(=O)Nc3cc(F)c4nc(C)cn4c3)c2n1 [Compound 627]
100 to 1000 nM

What value of IC50 has been reported for the following compound? CO[C@H]1C[C@H](n2cc3c(N4CCNCC4)ccc(C(=O)Nc4cc(F)c5nc(C)cn5c4)c3n2)C1 [Compound 496]
> 10000 nM

What value of IC50 has been reported for the following compound? Cc1cc2c(N3CCNCC3)ccc(C(=O)Nc3cn[nH]c3)c2o1 [Compound 268]
> 10000 nM

What value of IC50 has been reported for the following compound? CCn1cc2c(N3C[C@@H](C)N[C@@H](C(C)C)C3)ccc(C(=O)Nc3cc(F)c4nc(C)cn4c3)c2n1 [Compound 600]
1000 to 10000 nM

What value of IC50 has been reported for the following compound? Cc1cn2cc(NC(=O)c3ccc(N4CCC5(CCN5)CC4)c4cn(C)nc34)cc(F)c2n1 [Compound 301, trifluoroacetic acid salt]
< 100 nM

Attribution: patent US20250154169A1
